Target: UniProt Q5T2D3
Sequence (whole entry): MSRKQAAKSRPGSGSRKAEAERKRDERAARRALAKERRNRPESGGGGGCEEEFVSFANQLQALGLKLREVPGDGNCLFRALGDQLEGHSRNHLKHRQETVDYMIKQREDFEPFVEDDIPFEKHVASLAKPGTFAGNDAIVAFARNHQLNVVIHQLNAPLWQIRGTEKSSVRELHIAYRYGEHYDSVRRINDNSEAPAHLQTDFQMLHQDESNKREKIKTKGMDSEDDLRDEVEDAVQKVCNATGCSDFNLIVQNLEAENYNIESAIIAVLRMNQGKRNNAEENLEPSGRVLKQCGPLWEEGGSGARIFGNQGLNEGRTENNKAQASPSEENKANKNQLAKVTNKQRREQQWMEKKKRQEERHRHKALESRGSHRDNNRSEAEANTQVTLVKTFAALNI
Test: log2 ratio of Biotin-Ahx-Ub-VS probe labelling (fragment/DMSO); higher = less target engagement (more negative = stronger competition), active = hit call of the paper (q ≤ 0.05, log2 ratio ≤ -1)
Details: compound concentration: 200 uM; treatment time: 3 h
Threshold rule: log2 ratio of Biotin-Ahx-Ub-VS probe labelling greater than or equal to -0.2 is MET; below that, NOT MET.

{"columns": ["compound", "assigned.label"],
 "data": [
  ["Cc1ncc2c(n1)CCN(C(=O)CCl)C2", "NOT MET"],
  ["O=C(CCl)Nc1ccc2c(c1)OC(F)(F)O2", "NOT MET"],
  ["Cc1ccc(N(CCC#N)C(=O)CCl)cc1C", "MET"],
  ["CC(NC(=O)CCl)c1noc(Cc2ccccc2)n1 (configuration not stated)", "NOT MET"],
  ["O=C(CCl)N1CCN2C(=O)CCC2C1 (configuration not stated)", "NOT MET"],
  ["O=C(CCl)N1CCCN(C(=O)c2ccc(Cl)cc2)CC1", "MET"],
  ["CC(O)CC1CCN(C(=O)CCl)CC1 (configuration not stated)", "MET"],
  ["Cl.Cn1nc2c(c1CNC(=O)CCl)CCCC2", "NOT MET"],
  ["COc1ccc(Cl)cc1NC(=O)CCl", "NOT MET"],
  ["Cc1cccn2cc(CCNC(=O)CCl)nc12.Cl", "MET"],
  ["CC1(NC(=O)CCl)CCS(=O)(=O)C1 (configuration not stated)", "NOT MET"],
  ["O=C(CCl)NC1CCCCNC1=O (configuration not stated)", "NOT MET"]
]}
